Experiment summary: microbe, parasite or virus in culture
Condition context: Mycobacterium tuberculosis, 96 h, read-out: pIC50 (converted)
This section presents compounds with their documented IC50 values.
Field: numeric (µM). Do not append units.

Answered examples (5):
CC(C)c1ccc(C(CN)N2CCc3sccc3C2)cc1 (centres undefined) = 24.8
N#CCCN1CCCN(c2ccc(C#N)cc2)CC1 = 262
Cc1cc(S(=O)(=O)NC2CCS(=O)(=O)C2)c(C)s1 (centres undefined) = 310
CCNc1nnc(SC(C)C)s1 = 54.2
Cc1ccc(S(=O)(=O)N2CCc3nc(C4CCNCC4)ncc3C2)cc1 = 6.39

Output IC50 of COc1cccc(CN2CCC3(CC2)OCC(C)O3)c1 (centres undefined)
244

Determine its reported IC50: `CC1CCN(C(=O)CSc2nncs2)CC1`
23.8

# return recorded IC50 for input `NCCc1nc(-c2cccc(Cl)c2)no1`
190

Tell me measured IC50 for COCCN(C)Cc1cc(Cl)ccc1OCC(O)CN1CCCCCC1 (centres undefined) please.
12.4

Quote IC50 reported for CCC1(CO)CCCN(C(=O)c2ccc(COC)s2)C1 (centres undefined) please.
246

Quote IC50 reported for CCOCC(=O)NCC(Cc1cccc(F)c1)n1cccc1 (centres undefined) please.
11.7

Please indicate IC50 recorded for `O=C(c1cnsn1)N1CCN(c2ccccn2)CC1`
51.4
